B1: CCDC6 (parent)
chain: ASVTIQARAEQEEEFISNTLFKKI

# Variants of: B1
# assay-details: protein stability index of a GFP-peptide fusion (GPS, HEK-293T) (PSI 1-6); higher = more stable;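 also: lentivirally expressed fusions sorted by FACS into six bins by GFP to DsRed ratio, PSI derived from sequencing read proportions per bin multiplied by bin number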
# condition-context: c terminus: a fixed tail appended
Short version: protein stability index at least 3 is Criterion met, less is Criterion not met.

[[record]]
var = "N18E"
category = "Criterion met"

[[record]]
var = "E12Y"
category = "Criterion not met"

[[record]]
var = "K22H"
category = "Criterion met"

[[record]]
var = "Q6A"
category = "Criterion met"

[[record]]
var = "A7D"
category = "Criterion met"

[[record]]
var = "E12K"
category = "Criterion met"

[[record]]
var = "R8Q"
category = "Criterion met"

[[record]]
var = "E14C"
category = "Criterion not met"

[[record]]
var = "K23T"
category = "Criterion met"

